Tested on: J774
ASSAY PROTOCOL: Selectivity index, ratio of IC50 for COX1 in mouse J774 cells to IC50 for COX2 in mouse J774 cells
Type: cell-based
METRIC NAME: Ratio IC50

[
  {
    "RECORD SMILES": "Cc1c(/C=N\\O)cc(-c2ccc(S(C)(=O)=O)cc2)n1-c1ccccc1",
    "Ratio IC50": "> 52.6"
  },
  {
    "RECORD SMILES": "Cc1c(C#N)cc(-c2ccc(S(C)(=O)=O)cc2)n1-c1ccc(F)c(F)c1",
    "Ratio IC50": "> 454"
  }
]

## Input Which value of Ratio IC50 has been reported for Cc1c(C#N)cc(-c2ccc(S(C)(=O)=O)cc2)n1-c1cccc(F)c1 in the records?
## Output > 769

## Input Cc1c(C=O)cc(-c2ccc(S(C)(=O)=O)cc2)n1-c1ccc(F)c(F)c1 ?
## Output > 143

Where do these numbers come from? They come from ChEMBL document CHEMBL2390933.
